Target: FLT1A (Homo sapiens, UniProt P17948)
Construct: purchased in-house DSF kinase panel (SGC-style construct names; the trailing letter is the construct ID)
Sequence (P17948 801-1158): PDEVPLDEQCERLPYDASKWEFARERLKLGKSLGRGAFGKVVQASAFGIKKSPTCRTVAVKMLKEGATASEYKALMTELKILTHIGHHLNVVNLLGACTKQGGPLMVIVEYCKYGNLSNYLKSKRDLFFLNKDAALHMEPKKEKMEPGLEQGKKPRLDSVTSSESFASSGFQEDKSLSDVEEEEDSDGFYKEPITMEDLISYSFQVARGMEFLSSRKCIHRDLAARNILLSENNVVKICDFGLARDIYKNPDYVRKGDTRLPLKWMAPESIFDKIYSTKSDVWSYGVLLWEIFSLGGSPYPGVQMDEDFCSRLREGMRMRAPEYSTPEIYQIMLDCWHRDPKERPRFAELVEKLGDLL
Assay: DSF Tm panel
Type: binding
Details: 10 μM compound
Metric: ΔTm at 10 µM (°C)

>>> numeric_readout("O=C(NCc1ccc(Cl)cc1F)Nc1ccc2cc1OCCOCCNc1ccn3ncc-2c3n1")
2.6
>>> numeric_readout("O=C(NCc1ccc(Cl)cc1)Nc1ccc2cc1OCCOCCNc1ccn3ncc-2c3n1")
3.4

P: O=C(NCc1ccc(Cl)cc1Cl)Nc1ccc2cc1OCCOCCNc1ccn3ncc-2c3n1
Q: Cc1cc(Cl)ccc1CNC(=O)Nc1ccc2cc1OCCOCCNc1ccn3ncc-2c3n1
R: O=C(NCc1ccccc1)Nc1ccc2cc1OCCOCCNc1ccn3ncc-2c3n1
Task for the reader: rank each entry by its ΔTm at 10 µM, from the minimum upward. Note for the reader: the ranking is given by listing the labels in the order requested. P, Q, R

a: O=C(NCc1cccc(Cl)c1)Nc1ccc2cc1OCCOCCNc1ccn3ncc-2c3n1
b: O=C(NCc1ccccc1Cl)Nc1ccc2cc1OCCOCCNc1ccn3ncc-2c3n1
In the pair a and b , the larger recorded ΔTm at 10 µM belongs to which? Give the label of your selection. a
(a: 3.7 °C, b: 2.1 °C)

###

Target: PIM1 (PIM1A) (Homo sapiens, UniProt P11309)
Construct: purchased in-house DSF kinase panel (SGC-style construct names; the trailing letter is the construct ID)
Sequence (P11309 whole entry): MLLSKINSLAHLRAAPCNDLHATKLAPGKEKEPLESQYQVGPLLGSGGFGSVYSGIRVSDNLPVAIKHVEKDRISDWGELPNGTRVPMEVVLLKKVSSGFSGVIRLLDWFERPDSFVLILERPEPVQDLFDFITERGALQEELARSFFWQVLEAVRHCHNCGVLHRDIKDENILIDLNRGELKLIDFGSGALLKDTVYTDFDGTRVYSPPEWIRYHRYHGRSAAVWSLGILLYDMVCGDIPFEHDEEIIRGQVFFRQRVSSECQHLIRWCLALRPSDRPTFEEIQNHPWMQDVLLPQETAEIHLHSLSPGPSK
Test: DSF Tm panel
Type: binding
Conditions: 10 μM compound
Metric: ΔTm at 10 µM (°C)

>>> numeric_readout("O=C(NCc1ccccc1C(F)(F)F)Nc1ccc2cc1OCCOCCNc1ccn3ncc-2c3n1")
1.1
>>> numeric_readout("O=C(NCc1ccccc1)Nc1ccc2cc1OCCOCCNc1ccn3ncc-2c3n1")
1.2
>>> numeric_readout("CN1CCN(C(=O)Nc2ccc3cc2OCCOCCNc2ccn4ncc-3c4n2)CC1")
2.4
>>> numeric_readout("COc1ccc(CNC(=O)Nc2ccc3cc2OCCOCCNc2ccn4ncc-3c4n2)cc1F")
1.7

1: C[C@H](NC(=O)Nc1ccc2cc1OCCOCCNc1ccn3ncc-2c3n1)c1ccccc1
2: COc1ccc(CNC(=O)Nc2ccc3cc2OCCOCCNc2ccn4ncc-3c4n2)cc1
3: O=C(NCc1cccc(Cl)c1)Nc1ccc2cc1OCCOCCNc1ccn3ncc-2c3n1
4: Cc1ccc(F)cc1CNC(=O)Nc1ccc2cc1OCCOCCNc1ccn3ncc-2c3n1
Task for the reader: rank each entry by its ΔTm at 10 µM, from the minimum upward. Note for the reader: the ranking is given by listing the labels in the order requested. 1, 4, 2, 3
(1: 0.6 °C, 4: 1 °C, 2: 2 °C, 3: 3.2 °C)

###

Biological target: TTKA (Homo sapiens, UniProt P33981)
Construct: purchased in-house DSF kinase panel (SGC-style construct names; the trailing letter is the construct ID)
Sequence (P33981 519-808): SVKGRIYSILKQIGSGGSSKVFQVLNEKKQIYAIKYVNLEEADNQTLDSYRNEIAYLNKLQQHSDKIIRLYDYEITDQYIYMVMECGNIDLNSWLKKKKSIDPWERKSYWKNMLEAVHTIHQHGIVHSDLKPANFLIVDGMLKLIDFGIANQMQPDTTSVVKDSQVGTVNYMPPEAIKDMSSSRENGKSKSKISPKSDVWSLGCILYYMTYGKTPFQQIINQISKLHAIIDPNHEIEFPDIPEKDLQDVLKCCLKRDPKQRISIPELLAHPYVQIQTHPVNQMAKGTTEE
Assay: DSF Tm panel
Assay type: binding
Details: 10 μM compound
Metric: ΔTm at 10 µM (°C)

>>> numeric_readout("O=C(NCc1ccc(C(F)(F)F)cc1)Nc1ccc2cc1OCCOCCNc1ccn3ncc-2c3n1 [compound 28]")
3.1

P: O=C(NCc1ccccc1Cl)Nc1ccc2cc1OCCOCCNc1ccn3ncc-2c3n1 [compound 17]
Q: O=C(NCc1ccccc1C(F)(F)F)Nc1ccc2cc1OCCOCCNc1ccn3ncc-2c3n1 [compound 27]
Form: Entry with minimum ΔTm at 10 µM (choose one): P / Q Give the label of your selection. P
(P: 1.8 °C, Q: 3.5 °C)

1: COc1ccccc1CNC(=O)Nc1ccc2cc1OCCOCCNc1ccn3ncc-2c3n1 [compound 29]
2: O=C(NCc1cccc(Cl)c1)Nc1ccc2cc1OCCOCCNc1ccn3ncc-2c3n1 [compound 18]
In the pair 1 and 2 , the larger recorded ΔTm at 10 µM belongs to which? Give the label of your selection. 2
(2: 2.2 °C, 1: 1.4 °C)

###

Target: DYRK1AA (Homo sapiens)
Construct: purchased in-house DSF kinase panel (SGC-style construct names; the trailing letter is the construct ID)
Assay: DSF Tm panel
Assay type: binding
Conditions: 10 μM compound
Metric: ΔTm at 10 µM (°C)

Please review the following examples before continuing.
>>> numeric_readout("COc1ccc(CNC(=O)Nc2ccc3cc2OCCOCCNc2ccn4ncc-3c4n2)cc1")
0.3
>>> numeric_readout("O=C(NCc1ccc(Cl)cc1Cl)Nc1ccc2cc1OCCOCCNc1ccn3ncc-2c3n1")
0.6

I: COc1ccccc1CNC(=O)Nc1ccc2cc1OCCOCCNc1ccn3ncc-2c3n1
II: Cc1cc(Cl)ccc1CNC(=O)Nc1ccc2cc1OCCOCCNc1ccn3ncc-2c3n1
III: C[C@H](NC(=O)Nc1ccc2cc1OCCOCCNc1ccn3ncc-2c3n1)c1ccccc1
IV: O=C(NCc1ccccc1C(F)(F)F)Nc1ccc2cc1OCCOCCNc1ccn3ncc-2c3n1
Task for the reader: rank each entry by its ΔTm at 10 µM, from the minimum upward. Note for the reader: the ranking is given by listing the labels in the order requested. I, III, IV, II
(I: -0.5 °C, III: -0.1 °C, IV: 1 °C, II: 2.6 °C)

###

Molecular target: GAKA (Homo sapiens)
Construct: purchased in-house DSF kinase panel (SGC-style construct names; the trailing letter is the construct ID)
Sequence (O14976 14-351): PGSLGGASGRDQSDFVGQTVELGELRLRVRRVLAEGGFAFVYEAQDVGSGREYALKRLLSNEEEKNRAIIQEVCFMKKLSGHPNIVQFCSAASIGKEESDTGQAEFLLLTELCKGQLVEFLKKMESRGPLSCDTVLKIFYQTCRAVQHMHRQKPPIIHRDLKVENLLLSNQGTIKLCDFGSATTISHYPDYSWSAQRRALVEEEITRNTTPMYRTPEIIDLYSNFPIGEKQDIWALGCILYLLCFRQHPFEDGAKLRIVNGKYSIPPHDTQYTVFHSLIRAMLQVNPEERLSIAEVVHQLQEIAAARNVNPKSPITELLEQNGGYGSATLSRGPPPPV
Assay: DSF Tm panel
Assay type: binding
Details: 10 μM compound
Metric: ΔTm at 10 µM (°C)

Please review the following examples before continuing.
>>> numeric_readout("O=C(NCc1ccccc1)Nc1ccc2cc1OCCOCCNc1ccn3ncc-2c3n1")
6.1
>>> numeric_readout("Cc1ccc(F)cc1CNC(=O)Nc1ccc2cc1OCCOCCNc1ccn3ncc-2c3n1")
6
>>> numeric_readout("CN1CCN(C(=O)Nc2ccc3cc2OCCOCCNc2ccn4ncc-3c4n2)CC1")
3.8
>>> numeric_readout("O=C(NCc1cccc(Cl)c1)Nc1ccc2cc1OCCOCCNc1ccn3ncc-2c3n1")
4.1

a: COc1cccc(CNC(=O)Nc2ccc3cc2OCCOCCNc2ccn4ncc-3c4n2)c1
b: Cc1cc(Cl)ccc1CNC(=O)Nc1ccc2cc1OCCOCCNc1ccn3ncc-2c3n1
Form: Entry with minimum ΔTm at 10 µM (choose one): a / b Give the label of your selection. b
(b: 2.8 °C, a: 4.7 °C)

###

Biological target: NEK1A (Homo sapiens, UniProt Q96PY6)
Construct: purchased in-house DSF kinase panel (SGC-style construct names; the trailing letter is the construct ID)
Sequence (Q96PY6 1-328): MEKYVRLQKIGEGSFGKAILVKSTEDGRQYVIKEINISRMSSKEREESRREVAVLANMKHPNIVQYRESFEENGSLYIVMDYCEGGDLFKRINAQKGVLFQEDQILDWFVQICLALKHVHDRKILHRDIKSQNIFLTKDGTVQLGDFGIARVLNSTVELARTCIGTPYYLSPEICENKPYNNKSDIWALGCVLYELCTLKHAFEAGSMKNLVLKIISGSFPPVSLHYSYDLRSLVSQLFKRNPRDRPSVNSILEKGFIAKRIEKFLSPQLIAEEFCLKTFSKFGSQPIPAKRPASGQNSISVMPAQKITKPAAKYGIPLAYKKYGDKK
Assay: DSF Tm panel
Assay type: binding
Conditions: 10 μM compound
Metric: ΔTm at 10 µM (°C)

Please review the following examples before continuing.
>>> numeric_readout("COc1ccc(CNC(=O)Nc2ccc3cc2OCCOCCNc2ccn4ncc-3c4n2)cc1F")
-0.4
>>> numeric_readout("O=C(NCc1ccc(Cl)cc1)Nc1ccc2cc1OCCOCCNc1ccn3ncc-2c3n1")
-0.2
>>> numeric_readout("C[C@H](NC(=O)Nc1ccc2cc1OCCOCCNc1ccn3ncc-2c3n1)c1ccccc1")
-0.4
>>> numeric_readout("COc1ccccc1CNC(=O)Nc1ccc2cc1OCCOCCNc1ccn3ncc-2c3n1")
-0.3

I: O=C(NCc1ccc(Cl)cc1Cl)Nc1ccc2cc1OCCOCCNc1ccn3ncc-2c3n1
II: Cc1cc(Br)ccc1CNC(=O)Nc1ccc2cc1OCCOCCNc1ccn3ncc-2c3n1
III: COc1cccc(CNC(=O)Nc2ccc3cc2OCCOCCNc2ccn4ncc-3c4n2)c1
Task for the reader: rank each entry by its ΔTm at 10 µM, from the minimum upward. Note for the reader: the ranking is given by listing the labels in the order requested. II, III, I
(II: -0.4 °C, III: -0.2 °C, I: 0.7 °C)

###

Biological target: MAPK9A (Homo sapiens)
Construct: purchased in-house DSF kinase panel (SGC-style construct names; the trailing letter is the construct ID)
Sequence (P45984 7-364): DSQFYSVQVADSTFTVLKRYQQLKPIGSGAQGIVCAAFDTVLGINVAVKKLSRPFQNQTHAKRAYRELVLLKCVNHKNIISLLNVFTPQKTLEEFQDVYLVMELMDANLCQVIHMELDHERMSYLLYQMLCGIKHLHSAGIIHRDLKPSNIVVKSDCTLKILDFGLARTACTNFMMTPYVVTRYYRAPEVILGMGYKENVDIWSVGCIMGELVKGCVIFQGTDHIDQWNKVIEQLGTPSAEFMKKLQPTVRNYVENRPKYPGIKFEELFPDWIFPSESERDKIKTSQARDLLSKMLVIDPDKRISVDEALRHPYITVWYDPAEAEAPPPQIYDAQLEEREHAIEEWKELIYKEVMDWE
Test: DSF Tm panel
Type: binding
Conditions: 10 μM compound
Metric: ΔTm at 10 µM (°C)

Please review the following examples before continuing.
>>> numeric_readout("COc1ccc(CNC(=O)Nc2ccc3cc2OCCOCCNc2ccn4ncc-3c4n2)cc1F")
-0.6
>>> numeric_readout("COc1cc(CNC(=O)Nc2ccc3cc2OCCOCCNc2ccn4ncc-3c4n2)ccc1F")
-1.2
>>> numeric_readout("O=C(NCc1ccccc1C(F)(F)F)Nc1ccc2cc1OCCOCCNc1ccn3ncc-2c3n1")
-0.1
>>> numeric_readout("O=C(NCc1ccc(Cl)cc1F)Nc1ccc2cc1OCCOCCNc1ccn3ncc-2c3n1")
0.3
>>> numeric_readout("CN1CCN(C(=O)Nc2ccc3cc2OCCOCCNc2ccn4ncc-3c4n2)CC1")
0.4
>>> numeric_readout("Cc1cc(Br)ccc1CNC(=O)Nc1ccc2cc1OCCOCCNc1ccn3ncc-2c3n1")
-1.2

1: O=C(NCc1ccc(Cl)cc1)Nc1ccc2cc1OCCOCCNc1ccn3ncc-2c3n1
2: COc1ccc(CNC(=O)Nc2ccc3cc2OCCOCCNc2ccn4ncc-3c4n2)cc1
3: O=C(NCc1ccccc1)Nc1ccc2cc1OCCOCCNc1ccn3ncc-2c3n1
4: O=C(NCc1cccc(Cl)c1)Nc1ccc2cc1OCCOCCNc1ccn3ncc-2c3n1
Arrange by ΔTm at 10 µM, high to low. Note for the reader: the ranking is given by listing the labels in the order requested. 3, 4, 1, 2
